Answer each item with its documented pIC50.
assaySystem: Integrin alpha-4/beta-1 (Homo sapiens, UniProt P05556+P13612)
Sequence (P05556 whole entry): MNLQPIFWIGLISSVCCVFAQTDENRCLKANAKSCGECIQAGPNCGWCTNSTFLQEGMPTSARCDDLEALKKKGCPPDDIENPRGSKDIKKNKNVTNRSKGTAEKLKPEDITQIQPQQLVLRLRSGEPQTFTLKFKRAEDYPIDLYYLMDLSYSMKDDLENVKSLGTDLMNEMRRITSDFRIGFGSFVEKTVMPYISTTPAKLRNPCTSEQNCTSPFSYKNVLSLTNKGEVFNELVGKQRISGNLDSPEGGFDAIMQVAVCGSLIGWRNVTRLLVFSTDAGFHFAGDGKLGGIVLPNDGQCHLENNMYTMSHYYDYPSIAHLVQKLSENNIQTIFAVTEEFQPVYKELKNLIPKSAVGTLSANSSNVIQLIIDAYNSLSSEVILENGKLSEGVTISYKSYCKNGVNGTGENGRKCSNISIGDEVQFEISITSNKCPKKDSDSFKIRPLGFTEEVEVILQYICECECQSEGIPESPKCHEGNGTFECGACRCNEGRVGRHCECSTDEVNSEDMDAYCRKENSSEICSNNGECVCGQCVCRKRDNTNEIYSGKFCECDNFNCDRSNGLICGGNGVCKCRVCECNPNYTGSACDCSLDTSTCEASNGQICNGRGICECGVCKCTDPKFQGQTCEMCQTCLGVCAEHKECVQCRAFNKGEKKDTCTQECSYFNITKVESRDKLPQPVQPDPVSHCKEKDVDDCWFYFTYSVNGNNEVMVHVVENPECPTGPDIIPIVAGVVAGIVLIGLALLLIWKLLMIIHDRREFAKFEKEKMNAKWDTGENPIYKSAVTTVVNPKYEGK
Sequence (P13612 whole entry): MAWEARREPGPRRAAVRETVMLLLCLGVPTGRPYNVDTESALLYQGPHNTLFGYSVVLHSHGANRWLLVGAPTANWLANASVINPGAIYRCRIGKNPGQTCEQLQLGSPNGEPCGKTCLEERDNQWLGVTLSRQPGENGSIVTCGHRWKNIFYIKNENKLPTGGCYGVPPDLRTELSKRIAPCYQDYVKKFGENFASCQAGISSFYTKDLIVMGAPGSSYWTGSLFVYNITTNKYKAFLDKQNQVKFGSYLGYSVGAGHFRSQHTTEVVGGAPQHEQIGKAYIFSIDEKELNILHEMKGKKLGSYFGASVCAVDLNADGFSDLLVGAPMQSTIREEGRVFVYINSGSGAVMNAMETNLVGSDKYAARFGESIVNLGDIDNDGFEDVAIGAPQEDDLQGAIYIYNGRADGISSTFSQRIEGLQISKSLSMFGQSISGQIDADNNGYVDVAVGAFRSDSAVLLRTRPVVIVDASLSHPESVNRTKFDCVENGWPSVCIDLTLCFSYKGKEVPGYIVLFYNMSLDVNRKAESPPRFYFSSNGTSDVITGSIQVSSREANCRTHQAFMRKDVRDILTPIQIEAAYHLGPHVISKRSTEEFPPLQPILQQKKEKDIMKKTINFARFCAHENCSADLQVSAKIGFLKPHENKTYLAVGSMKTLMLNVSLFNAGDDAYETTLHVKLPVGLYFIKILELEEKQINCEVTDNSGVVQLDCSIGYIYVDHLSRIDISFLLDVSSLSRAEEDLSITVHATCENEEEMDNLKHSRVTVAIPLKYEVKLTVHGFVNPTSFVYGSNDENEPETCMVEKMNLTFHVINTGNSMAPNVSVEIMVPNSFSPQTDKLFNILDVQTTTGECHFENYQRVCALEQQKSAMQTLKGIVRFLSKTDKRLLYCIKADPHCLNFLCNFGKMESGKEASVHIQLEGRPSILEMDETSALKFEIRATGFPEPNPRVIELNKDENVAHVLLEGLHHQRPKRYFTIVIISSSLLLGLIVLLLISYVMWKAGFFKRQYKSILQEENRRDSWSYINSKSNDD
method: Binding affinity towards VLA-4 (alpha4 beta-1) receptor in human Jurkat cells using [125I]VCAM-Ig as radioligand
One number for each entry, as −log10 of the molar value.

Would you please look over these solved cases?
In [3]: df
Out[3]:
                                   compound  observedresult
0  COc1ccccc1-c1ccc(C[C@H](NC(=O)C2(S(=O)(=O)c3ccccc3)CCN(c3ccccc3)CC2)C(=O)O)cc1            7.64
1  COc1ccccc1-c1ccc(C[C@H](NC(=O)C2(S(=O)(=O)c3ccccc3C)CCCCC2)C(=O)O)cc1            8.57
2  COc1ccccc1-c1ccc(C[C@H](NC(=O)C2(S(=O)(=O)c3ccccc3)CCOCC2)C(=O)O)cc1            9.26
3  COc1cccc(OC)c1-c1ccc(C[C@H](NC(=O)C2(S(=O)(=O)c3ccccc3)CCCCC2)C(=O)O)cc1            9.72
4  O=C(O)[C@H](Cc1ccc(-c2ccccc2)cc1)NC(=O)C1(S(=O)(=O)c2cccc3ccccc23)CCCC1            6.13

For every item in the list below, what is its measured pIC50?
1. COc1cccc(OC)c1-c1ccc(C[C@H](NC(=O)C2(S(=O)(=O)CCNCCCN(C)C)CCCNC2)C(=O)O)cc1 (stereo partly specified)
2. O=C(O)[C@H](Cc1ccc(-c2ccccc2)cc1)NC(=O)C1(S(=O)(=O)c2ccccc2)CCCC1

Result:
1. 9.43
2. 7.55

Below is a list of compounds. For each, state its recorded pIC50.
1. COc1cccc(OC)c1-c1ccc(C[C@H](NC(=O)C2(S(=O)(=O)c3ccccc3)CCCNC2)C(=O)O)cc1 (stereo partly specified)
2. COc1cccc(OC)c1-c1ccc(C[C@H](NC(=O)C2(S(=O)(=O)c3cccc(Br)c3)CCCNC2)C(=O)O)cc1 (stereo partly specified)
3. COc1ccccc1-c1ccc(C[C@H](NC(=O)C2(S(=O)(=O)C3CCCC3)CCCC2)C(=O)O)cc1

Result:
10.05
9.89
8.92

For each of the items listed, what is its pIC50?
1. COc1ccccc1-c1ccc(C[C@H](NC(=O)C2(S(=O)(=O)c3ccccc3)CC[S+]([O-])CC2)C(=O)O)cc1 (stereo partly specified)
2. O=C(Nc1ccc(C[C@H](NC(=O)C2(S(=O)(=O)c3ccccc3)CCCNC2)C(=O)O)cc1)c1c(Cl)cccc1Cl (stereo partly specified)
3. COc1ccccc1-c1ccc(C[C@H](NC(=O)C2(S(=O)(=O)C3CCCCC3)CCCC2)C(=O)O)cc1
4. COc1cccc(OC)c1-c1ccc(C[C@H](NC(=O)C2(S(=O)(=O)c3ccccc3)CCOC2)C(=O)O)cc1 (stereo partly specified)
5. COc1ccccc1-c1ccc(C[C@H](NC(=O)C2(S(=O)(=O)C(C)(C)C)CCCC2)C(=O)O)cc1

Result:
8.36
9.72
8.96
10.00
9.33

Ask: // Input: O=C(O)[C@H](Cc1ccc(-c2ccccc2)cc1)NC(=O)C1(S(=O)(=O)c2ccccc2Br)CCCCC1 . Output its pIC50 only.
Result: 7.35

---

method: Oral bioavailability in rat (Sprague-Dawley) (dose 2 mg/kg)
Format: ADME, organism-based
assaySetup: in vivo
Kindly state bioavailability for each of the entries shown.
Answers are plain numbers, in %.

The following compounds have reported results that may help.
In [3]: df
Out[3]:
                                   compound  reportedproperty  observedresult
0  COc1cccc(OC)c1-c1ccc(C[C@H](NC(=O)C2(S(=O)(=O)c3ccccc3)CCCNC2)C(=O)O)cc1 (some centres undefined)   bioavailability               1
1  O=C(Nc1ccc(C[C@H](NC(=O)C2(S(=O)(=O)c3ccccc3)CCOCC2)C(=O)O)cc1)c1c(Cl)cccc1Cl   bioavailability               1
2  O=C(Nc1ccc(C[C@H](NC(=O)C2(S(=O)(=O)c3ccccc3)CCCNC2)C(=O)O)cc1)c1c(Cl)cccc1Cl (some centres undefined)   bioavailability               0

Continue with the next compound.
Ask: Complete the entry with bioavailability for COc1cccc(OC)c1-c1ccc(C[C@H](NC(=O)C2(S(=O)(=O)c3ccccc3)CCOCC2)C(=O)O)cc1
Result: 3

---

assaySystem: Integrin alpha-4/beta-1 (Homo sapiens, UniProt P05556+P13612)
method: Binding affinity towards VLA-4 (alpha4 beta-1) receptor in human Jurkat cells using [125I]VCAM-Ig as radioligand
reportedProperty: pIC50
Numbers only, as −log10 of the molar value.

                             compoundsmiles  observedresult
0  COc1ccccc1-c1ccc(C[C@H](NC(=O)C2(S(=O)(=O)c3ccc(Cl)cc3)CCCCC2)C(=O)O)cc1            8.96
1  COc1ccccc1-c1ccc(C[C@H](NC(=O)C2(S(=O)(=O)c3ccccc3)CCNCC2)C(=O)O)cc1            7.70
2  COc1ccccc1-c1ccc(C[C@H](NC(=O)C2(S(=O)(=O)c3ccccc3)CCCC2)C(=O)O)cc1            9.48

For each listed entry, give its pIC50.
1. COc1cccc(OC)c1-c1ccc(C[C@H](NC(=O)C2(S(=O)(=O)c3ccccc3)CCSCC2)C(=O)O)cc1
2. CCCCN1CCC(C(=O)N[C@@H](Cc2ccc(-c3ccccc3OC)cc2)C(=O)O)(S(=O)(=O)c2ccccc2)CC1

Result:
[9.66, 7.29]

---

assaySystem: Integrin alpha-4/beta-1 (Homo sapiens, UniProt P05556+P13612)
method: Binding affinity towards VLA-4 (alpha4 beta-1) receptor in human Jurkat cells using [125I]VCAM-Ig as radioligand
reportedProperty: pIC50
Give bare numbers, as −log10 of the molar value.

In [3]: df
Out[3]:
                                   compound                               assaysystem  reportedproperty  observedresult
0  COc1cccc(OC)c1-c1ccc(C[C@H](NC(=O)C2(S(=O)(=O)c3cncn3C)CCCNC2)C(=O)O)cc1 (stereo partly drawn)  Integrin alpha-4/beta-1 (Homo sapiens, UniProt P05556+P13612)             pIC50            9.85
1  COc1cccc(OC)c1-c1ccc(C[C@H](NC(=O)C2(S(=O)(=O)c3ccc(N4CCCC4)cc3)CCCNC2)C(=O)O)cc1 (stereo partly drawn)  Integrin alpha-4/beta-1 (Homo sapiens, UniProt P05556+P13612)             pIC50            9.44
2  COc1ccccc1-c1ccc(C[C@H](NC(=O)C2(S(=O)(=O)c3ccccc3)CCN(C)CC2)C(=O)O)cc1  Integrin alpha-4/beta-1 (Homo sapiens, UniProt P05556+P13612)             pIC50            8.52
3  O=C(O)[C@H](Cc1ccc(-c2ccccc2)cc1)NC(=O)C1(S(=O)(=O)c2ccccc2)Cc2ccccc2C1  Integrin alpha-4/beta-1 (Homo sapiens, UniProt P05556+P13612)             pIC50            6.17
4  O=C(O)[C@H](Cc1ccc(-c2ccccc2)cc1)NC(=O)C1(S(=O)(=O)c2ccc(Br)cc2)CCCC1  Integrin alpha-4/beta-1 (Homo sapiens, UniProt P05556+P13612)             pIC50            7.64

Need pIC50 for each of these compounds.
1. COc1ccccc1-c1ccc(C[C@H](NC(=O)C2(S(=O)(=O)c3ccc(F)cc3)CCCCC2)C(=O)O)cc1
2. COc1ccccc1-c1ccc(C[C@H](NC(=O)C2(S(=O)(=O)c3ccccc3)CCS(=O)(=O)CC2)C(=O)O)cc1
3. COc1cccc(OC)c1-c1ccc(C[C@H](NC(=O)C2(S(=O)(=O)c3ccccc3Br)CCCNC2)C(=O)O)cc1 (stereo partly drawn)

Result:
9.12
8.89
9.82

---

assaySystem: Integrin alpha-4/beta-7 (Homo sapiens, UniProt P13612+P26010)
Sequence (P13612 whole entry): as above
Sequence (P26010 whole entry): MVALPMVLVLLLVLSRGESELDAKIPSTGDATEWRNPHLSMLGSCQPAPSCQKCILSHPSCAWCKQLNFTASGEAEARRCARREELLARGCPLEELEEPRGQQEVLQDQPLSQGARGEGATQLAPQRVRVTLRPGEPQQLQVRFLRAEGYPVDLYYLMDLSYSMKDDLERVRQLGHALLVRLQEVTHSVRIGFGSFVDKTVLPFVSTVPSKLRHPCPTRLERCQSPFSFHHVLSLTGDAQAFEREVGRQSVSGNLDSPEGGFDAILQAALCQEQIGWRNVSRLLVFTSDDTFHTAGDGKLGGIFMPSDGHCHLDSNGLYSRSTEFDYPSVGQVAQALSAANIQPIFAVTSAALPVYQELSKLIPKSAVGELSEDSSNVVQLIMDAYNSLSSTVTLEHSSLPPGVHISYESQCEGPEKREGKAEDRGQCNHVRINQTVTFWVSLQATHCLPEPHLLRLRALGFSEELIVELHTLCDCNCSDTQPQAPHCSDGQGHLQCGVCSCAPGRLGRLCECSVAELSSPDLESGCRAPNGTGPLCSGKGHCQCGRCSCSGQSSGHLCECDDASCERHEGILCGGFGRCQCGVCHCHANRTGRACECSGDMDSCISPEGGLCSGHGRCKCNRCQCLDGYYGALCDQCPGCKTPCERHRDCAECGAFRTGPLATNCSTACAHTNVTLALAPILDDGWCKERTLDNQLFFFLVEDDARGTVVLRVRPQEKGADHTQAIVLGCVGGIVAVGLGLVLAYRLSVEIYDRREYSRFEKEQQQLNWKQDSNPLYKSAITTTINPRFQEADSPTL
method: Binding affinity towards […] receptor in human RPMI-8866 B-cell line using [125I]MAdCAM-Ig as radioligand
The label is rule met for IC50 below 300 nM and rule not met for IC50 equal to or exceeding 300 nM.

Examples with answers:
>>> df
                                   compound                               assaysystem  qualitativelabel
0  COc1ccccc1-c1ccc(C[C@H](NC(=O)C2(S(=O)(=O)c3ccccc3)CC[S+]([O-])CC2)C(=O)O)cc1 (stereo partly drawn)  Integrin alpha-4/beta-7 (Homo sapiens, UniProt P13612+P26010)      rule not met
1  COc1ccccc1-c1ccc(C[C@H](NC(=O)C2(S(=O)(=O)c3ccccc3)CCNCC2)C(=O)O)cc1  Integrin alpha-4/beta-7 (Homo sapiens, UniProt P13612+P26010)      rule not met
2  CCS(=O)(=O)C1(C(=O)N[C@@H](Cc2ccc(-c3ccccc3OC)cc2)C(=O)O)CCCC1  Integrin alpha-4/beta-7 (Homo sapiens, UniProt P13612+P26010)          rule met
3  COc1cccc(OC)c1-c1ccc(C[C@H](NC(=O)C2(S(=O)(=O)CCN3CCOCC3)CCCNC2)C(=O)O)cc1 (stereo partly drawn)  Integrin alpha-4/beta-7 (Homo sapiens, UniProt P13612+P26010)          rule met
4  COc1cccc(OC)c1-c1ccc(C[C@H](NC(=O)C2(S(=O)(=O)c3ccc(F)cc3)CCCC2)C(=O)O)cc1  Integrin alpha-4/beta-7 (Homo sapiens, UniProt P13612+P26010)          rule met
5  COc1cccc(OC)c1-c1ccc(C[C@H](NC(=O)C2(S(=O)(=O)c3cccc(Br)c3)CCCNC2)C(=O)O)cc1 (stereo partly drawn)  Integrin alpha-4/beta-7 (Homo sapiens, UniProt P13612+P26010)          rule met

Ask: Is it true that IC50 reported for O=C(Nc1ccc(C[C@H](NC(=O)C2(S(=O)(=O)c3ccccc3)CCCNC2)C(=O)O)cc1)c1c(Cl)cccc1Cl (stereo partly drawn) is less than 300 nM?
Result: rule met

Ask: Is the reported IC50 for COc1cccc(OC)c1-c1ccc(C[C@H](NC(=O)C2(S(=O)(=O)CCNCCCN(C)C)CCCNC2)C(=O)O)cc1 (stereo partly drawn) strictly below 300 nM?
Result: rule met

Recorded values, source ChEMBL document CHEMBL1145739.
